IC50, Protein-tyrosine kinase 2-beta (Homo sapiens, UniProt Q14289), per-entry values.
Write the value in nM as a bare number.

CNC(=O)c1ccccc1Nc1nc(Nc2ccc(NC(=O)CCCCC(=O)NCCCC(O)(P(=O)(O)O)P(=O)(O)O)cc2OC)ncc1Cl    44.7

Please turn your attention to the following entry.
# input Form field - read-out: IC50; system: Protein-tyrosine kinase 2-beta (Homo sapiens, UniProt Q14289); submitted item: CNC(=O)c1ccccc1Nc1nc(Nc2ccc(N3CCC(O)CC3)cc2OC)ncc1Cl
# Sequence (Q14289 whole entry): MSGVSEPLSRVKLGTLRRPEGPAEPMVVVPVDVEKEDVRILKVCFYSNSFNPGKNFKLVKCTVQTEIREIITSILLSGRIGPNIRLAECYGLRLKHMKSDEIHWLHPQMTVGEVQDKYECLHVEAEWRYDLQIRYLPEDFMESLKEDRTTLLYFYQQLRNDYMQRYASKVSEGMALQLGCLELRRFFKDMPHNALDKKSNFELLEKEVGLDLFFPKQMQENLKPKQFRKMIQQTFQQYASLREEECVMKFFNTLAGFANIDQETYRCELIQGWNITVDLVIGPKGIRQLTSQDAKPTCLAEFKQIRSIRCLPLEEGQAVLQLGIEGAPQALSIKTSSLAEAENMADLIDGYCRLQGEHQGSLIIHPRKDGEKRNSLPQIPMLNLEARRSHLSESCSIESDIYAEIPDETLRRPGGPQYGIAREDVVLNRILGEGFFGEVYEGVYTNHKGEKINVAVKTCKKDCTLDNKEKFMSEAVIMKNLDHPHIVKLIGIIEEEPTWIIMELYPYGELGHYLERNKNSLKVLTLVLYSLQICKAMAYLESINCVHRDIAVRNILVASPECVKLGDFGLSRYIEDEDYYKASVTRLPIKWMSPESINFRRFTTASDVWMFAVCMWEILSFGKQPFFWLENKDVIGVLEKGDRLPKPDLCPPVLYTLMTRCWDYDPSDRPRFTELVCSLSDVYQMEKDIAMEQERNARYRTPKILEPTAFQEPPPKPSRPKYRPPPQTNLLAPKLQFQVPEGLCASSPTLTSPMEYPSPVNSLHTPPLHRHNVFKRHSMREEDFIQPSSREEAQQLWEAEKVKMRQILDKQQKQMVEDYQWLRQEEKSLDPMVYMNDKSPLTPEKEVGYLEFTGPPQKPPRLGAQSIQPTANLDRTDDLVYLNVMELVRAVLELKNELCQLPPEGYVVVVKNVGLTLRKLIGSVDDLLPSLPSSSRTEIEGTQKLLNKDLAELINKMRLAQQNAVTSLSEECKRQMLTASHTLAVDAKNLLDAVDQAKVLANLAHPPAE
# output 101
